# Tested on: human 'normal' lung WI-38 cells
# Experiment description: MTT proliferation assay, WI-38
# Format: cell-based
# Assay setup: Homo sapiens, WI-38; MTT, 96 hours
Measured parameter: GI50

Quick batch: GI50 for everything below.
1. CN1c2ccccc2-c2c3c1cccc3c1ccc(NC(=O)C3CC3)cc1[n+]2C
2. Cc1cc2c3c([n+](C)c4ccc(F)cc4c3c1)-c1cc(F)ccc1N2C [Compound 1, reference compound]

OUTPUT:
13 µM
7.2 µM

Quick one: give me GI50 for each item below, same order please.
1. CN(C)CC#Cc1ccc2c3cccc4c3c([n+](C)c2c1)-c1ccccc1N4C
2. CN1c2ccccc2-c2c3c1cccc3c1ccc(NC(=O)CO)cc1[n+]2C
3. CC(=O)NCC#Cc1ccc2c3cccc4c3c([n+](C)c2c1)-c1ccccc1N4C

OUTPUT:
["9.36 µM", "22.3 µM", "25.1 µM"]

# batch size: 3; output GI50 per entry
1. CN1c2ccccc2-c2c3c1cccc3c1ccc(NC(=O)CC[S+](C)[O-])cc1[n+]2C (stereo not shown)
2. CN1c2ccccc2-c2c3c1cccc3c1ccc(CN)cc1[n+]2C
3. COC(=O)c1ccc2c(c1)c1cccc3c1c([n+]2C)-c1ccccc1N3C

OUTPUT:
> 30 µM
17.3 µM
3.11 µM

Provide GI50 for all items below, preserving their order.
1. C[n+]1c2c3c(cccc3c3ccccc31)Sc1ccccc1-2
2. C[n+]1c2c3c(cccc3c3ccccc31)Oc1ccccc1-2

OUTPUT:
6.17 µM
5.11 µM

###

# Test system: hERG (Homo sapiens, UniProt Q12809)
# Sequence (Q12809 whole entry): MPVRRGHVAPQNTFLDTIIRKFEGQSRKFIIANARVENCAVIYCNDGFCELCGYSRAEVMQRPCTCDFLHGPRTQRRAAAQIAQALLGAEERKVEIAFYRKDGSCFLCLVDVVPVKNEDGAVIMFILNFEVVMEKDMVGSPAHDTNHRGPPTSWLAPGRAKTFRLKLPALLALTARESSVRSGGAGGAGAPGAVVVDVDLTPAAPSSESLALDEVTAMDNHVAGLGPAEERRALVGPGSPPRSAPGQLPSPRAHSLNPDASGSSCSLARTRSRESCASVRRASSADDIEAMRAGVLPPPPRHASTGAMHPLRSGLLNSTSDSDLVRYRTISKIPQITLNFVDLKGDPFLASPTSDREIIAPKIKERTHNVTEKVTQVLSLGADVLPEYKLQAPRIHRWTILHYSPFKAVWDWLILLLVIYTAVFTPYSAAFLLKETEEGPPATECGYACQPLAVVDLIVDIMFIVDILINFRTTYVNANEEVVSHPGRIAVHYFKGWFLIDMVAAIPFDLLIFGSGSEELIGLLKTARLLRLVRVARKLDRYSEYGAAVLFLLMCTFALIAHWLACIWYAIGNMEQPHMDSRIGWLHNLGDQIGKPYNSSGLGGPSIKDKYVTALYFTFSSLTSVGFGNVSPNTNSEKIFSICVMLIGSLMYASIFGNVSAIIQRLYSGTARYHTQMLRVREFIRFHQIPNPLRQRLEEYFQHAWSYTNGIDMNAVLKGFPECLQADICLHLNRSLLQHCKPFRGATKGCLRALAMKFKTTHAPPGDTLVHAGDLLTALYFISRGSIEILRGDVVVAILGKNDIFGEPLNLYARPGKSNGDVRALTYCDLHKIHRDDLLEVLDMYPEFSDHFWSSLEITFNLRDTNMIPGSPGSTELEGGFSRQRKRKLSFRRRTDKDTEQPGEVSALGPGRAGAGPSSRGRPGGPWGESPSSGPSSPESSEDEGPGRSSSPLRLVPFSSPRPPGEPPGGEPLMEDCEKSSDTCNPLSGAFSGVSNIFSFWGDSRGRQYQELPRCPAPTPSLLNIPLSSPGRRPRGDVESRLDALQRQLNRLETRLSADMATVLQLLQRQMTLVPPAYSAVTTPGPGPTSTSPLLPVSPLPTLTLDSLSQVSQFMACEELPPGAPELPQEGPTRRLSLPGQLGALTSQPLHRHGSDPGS
# Experiment description: hERG tail current inhibition in a patch clamp assay
# Assay type: cell-based
# Assay setup: read-out: hERG % inh @10 μM
Hi there, I'd appreciate the recorded inhibition at 10 µM for every entry that follows.
Answers are plain numbers, in %.

Worked cases, inhibition at 10 µM given:
>>> measured_result("CN1c2ccccc2-c2c3c1cccc3c1ccc(NC(=O)CO)cc1[n+]2C")
35
>>> measured_result("CN1c2ccccc2-c2c3c1cccc3c1ccc(NC(=O)CC[S+](C)[O-])cc1[n+]2C (stereo not drawn)")
16
>>> measured_result("CC(=O)NCC#Cc1ccc2c3cccc4c3c([n+](C)c2c1)-c1ccccc1N4C")
40
>>> measured_result("CN1c2ccccc2-c2c3c1cccc3c1ccc(NC(=O)C3CC3)cc1[n+]2C")
74
>>> measured_result("CN1c2ccccc2-c2c3c1cccc3c1ccc(CN)cc1[n+]2C")
15

Look at each compound and report its inhibition at 10 µM.
1. C[n+]1c2c3c(cccc3c3ccccc31)Oc1ccccc1-2
2. COC(=O)c1ccc2c(c1)c1cccc3c1c([n+]2C)-c1ccccc1N3C
3. CN(C)CC#Cc1ccc2c3cccc4c3c([n+](C)c2c1)-c1ccccc1N4C
4. C[n+]1c2c3c(cccc3c3ccccc31)Sc1ccccc1-2

OUTPUT:
[86, 41, 37, 95]

###

# Test system: human recombinant M2 muscarinic receptor (Homo sapiens)
# Sequence (P08172 1-466): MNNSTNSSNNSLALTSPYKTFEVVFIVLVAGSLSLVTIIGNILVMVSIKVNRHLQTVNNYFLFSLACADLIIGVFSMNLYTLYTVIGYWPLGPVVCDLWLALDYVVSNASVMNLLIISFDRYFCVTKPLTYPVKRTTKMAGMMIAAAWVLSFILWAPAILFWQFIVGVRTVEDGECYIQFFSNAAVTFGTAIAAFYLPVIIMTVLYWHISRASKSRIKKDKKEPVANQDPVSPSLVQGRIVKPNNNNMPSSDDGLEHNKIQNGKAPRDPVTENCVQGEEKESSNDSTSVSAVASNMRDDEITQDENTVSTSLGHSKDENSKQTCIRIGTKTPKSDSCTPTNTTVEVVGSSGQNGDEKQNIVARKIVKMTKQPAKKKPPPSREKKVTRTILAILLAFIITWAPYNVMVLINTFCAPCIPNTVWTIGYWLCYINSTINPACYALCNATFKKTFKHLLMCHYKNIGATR
# Experiment description: M2 muscarinic receptor inhibition assay
# Format: binding
# Assay setup: read-out: Muscarinic (M2) % inh @1 μM
Measured parameter: inhibition at 1 µM (%)
One number for each entry, in %.

Solved entries (count: 8):
>>> measured_result("CN(C)CC#Cc1ccc2c3cccc4c3c([n+](C)c2c1)-c1ccccc1N4C")
92
>>> measured_result("CN1c2ccccc2-c2c3c1cccc3c1ccc(NC(=O)CO)cc1[n+]2C")
77
>>> measured_result("Cc1cc2c3c([n+](C)c4ccc(F)cc4c3c1)-c1cc(F)ccc1N2C [Compound 1, reference compound]")
98
>>> measured_result("CN1c2ccccc2-c2c3c1cccc3c1ccc(NC(=O)CC[S+](C)[O-])cc1[n+]2C (stereo not shown)")
93
>>> measured_result("CN1c2ccccc2-c2c3c1cccc3c1ccc(NC(=O)C3CC3)cc1[n+]2C")
98
>>> measured_result("CN1c2ccccc2-c2c3c1cccc3c1ccc(CN)cc1[n+]2C")
65
>>> measured_result("C[n+]1c2c3c(cccc3c3ccccc31)Sc1ccccc1-2")
49
>>> measured_result("CC(=O)NCC#Cc1ccc2c3cccc4c3c([n+](C)c2c1)-c1ccccc1N4C")
99

Batch: inhibition at 1 µM for all items listed.
1. C[n+]1c2c3c(cccc3c3ccccc31)Oc1ccccc1-2
2. COC(=O)c1ccc2c(c1)c1cccc3c1c([n+]2C)-c1ccccc1N3C

OUTPUT:
24
98
